- assay: Clearance in human hepatocytes assessed per million cells
- Format: ADME, cell-based, Hepatocyte
- study_conditions: read-out: CLH
// classify: if (hepatocyte CLint < 2 µL/min/1e6 cells) TRUE else FALSE

In plain terms, does `Cc1noc(N2C[C@H]3CC[C@@H](C2)[C@@H]3Nc2nc3c(OCC(F)(F)C(F)(F)F)cccn3n2)n1` come in under 2 µL/min/1e6 cells for hepatocyte CLint?
TRUE

Please let me know if `Cc1nsc(N2C[C@H]3CC[C@@H](C2)[C@@H]3Nc2nc3c(OCC(F)(F)F)cccn3n2)n1` shows hepatocyte CLint below 2 µL/min/1e6 cells.
TRUE

Say whether its hepatocyte CLint is strictly beneath 2 µL/min/1e6 cells. Entry: `Cc1cc(N2C[C@H]3CC[C@@H](C2)[C@@H]3Nc2nc3c(OCC(F)(F)F)cccn3n2)sn1`
FALSE

Here's an entry: `Cc1cc(N2C[C@H]3CC[C@@H](C2)[C@@H]3Nc2nc3c(O[C@@H](C)C(F)(F)F)cccn3n2)sn1` . Is its hepatocyte CLint below 2 µL/min/1e6 cells?
FALSE

For this molecule, is hepatocyte CLint lower than 2 µL/min/1e6 cells? `Cc1nsc(N2C[C@H]3CC[C@@H](C2)[C@@H]3Nc2nc3c(O[C@@H](C)C(F)(F)F)cccn3n2)n1`
FALSE

I'd appreciate it if you could check whether Cc1nsc(N2CC3CCC(C2)C3Nc2nc3c(-c4ccc(F)c(F)c4F)cccn3n2)n1 (stereo not given) has hepatocyte CLint smaller than 2 µL/min/1e6 cells.
FALSE

I wonder whether `Cc1nnc(N2C[C@H]3CC[C@@H](C2)[C@@H]3Nc2nc3c(O[C@@H](C)C(F)(F)F)ccc(C(F)(F)F)n3n2)o1` has hepatocyte CLint below 2 µL/min/1e6 cells. Can you tell?
TRUE

Consider `Cc1cc(N2C[C@H]3CC[C@@H](C2)[C@@H]3Nc2nc3c(OCC(F)F)ccc(C(F)(F)F)n3n2)ncn1` . Does its hepatocyte CLint lie strictly below 2 µL/min/1e6 cells?
FALSE

is_below(hepatocyte CLint, 2 µL/min/1e6 cells) for `FC(F)(F)COc1cccn2nc(N[C@@H]3[C@@H]4CC[C@H]3CN(c3ccnc(C(F)(F)F)c3)C4)nc12` ?
TRUE

Is hepatocyte CLint of `Cc1nsc(N2C[C@H]3CC[C@@H](C2)[C@@H]3Nc2nc3c(OCCC(F)(F)F)cccn3n2)n1` strictly below 2 µL/min/1e6 cells?
TRUE

For this molecule, is hepatocyte CLint lower than 2 µL/min/1e6 cells? `Cc1cc(N2C[C@H]3CC[C@@H](C2)[C@@H]3Nc2nc3c(OCC(F)(F)C(F)(F)F)cccn3n2)on1`
FALSE

For this molecule, is hepatocyte CLint lower than 2 µL/min/1e6 cells? `Cc1noc(N2C[C@H]3CC[C@@H](C2)[C@@H]3Nc2nc3c(OCC(F)(F)F)ccc(C(F)(F)F)n3n2)n1`
TRUE

Hello, I'm reviewing records and need to know if hepatocyte CLint of Cc1nnc(N2C[C@H]3CC[C@@H](C2)[C@@H]3Nc2nc3c(OC(C)C(F)(F)F)ccc(C(F)(F)F)n3n2)o1 (stereo not given in full) is below 2 µL/min/1e6 cells. Could you check?
TRUE

Say whether its hepatocyte CLint is strictly beneath 2 µL/min/1e6 cells. Entry: `COc1cccn2nc(N[C@@H]3[C@@H]4CC[C@H]3CN(c3nc(C)ns3)C4)nc12`
FALSE
